test system: Mycobacterium kansasii; assay: Antimycobacterial activity against Mycobacterium kansasii 6509/96 after 21 days; type: functional; conditions: 6509/96, 504 h
Under this convention, satisfied denotes MIC strictly below 30 µM and not satisfied denotes MIC at or above 30 µM.

[
  {
    "sampleSmiles": "O=C(Nc1cccc(Cl)c1)c1ccc([N+](=O)[O-])cc1O",
    "category": "satisfied"
  },
  {
    "sampleSmiles": "O=C(Nc1cc(C(F)(F)F)cc(C(F)(F)F)c1)c1ccc([N+](=O)[O-])cc1O",
    "category": "satisfied"
  },
  {
    "sampleSmiles": "O=C(Nc1ccc(Cl)c(Cl)c1)c1cc([N+](=O)[O-])ccc1O",
    "category": "not satisfied"
  },
  {
    "sampleSmiles": "O=C(Nc1ccc([N+](=O)[O-])c(C(F)(F)F)c1)c1ccc([N+](=O)[O-])cc1O",
    "category": "not satisfied"
  },
  {
    "sampleSmiles": "O=C(Nc1cccc(F)c1)c1cc([N+](=O)[O-])ccc1O",
    "category": "not satisfied"
  },
  {
    "sampleSmiles": "NNC(=O)c1ccncc1",
    "category": "satisfied"
  },
  {
    "sampleSmiles": "O=C(Nc1ccc([N+](=O)[O-])c(C(F)(F)F)c1)c1cccc([N+](=O)[O-])c1O",
    "category": "not satisfied"
  },
  {
    "sampleSmiles": "O=C(Nc1ccc([N+](=O)[O-])cc1)c1cc([N+](=O)[O-])ccc1O",
    "category": "not satisfied"
  },
  {
    "sampleSmiles": "O=C(Nc1cccc(Br)c1)c1cccc([N+](=O)[O-])c1O",
    "category": "not satisfied"
  },
  {
    "sampleSmiles": "O=C(Nc1ccc(C(F)(F)F)cc1)c1cccc([N+](=O)[O-])c1O",
    "category": "not satisfied"
  },
  {
    "sampleSmiles": "O=C(Nc1cccc(Br)c1)c1cc([N+](=O)[O-])ccc1O",
    "category": "not satisfied"
  },
  {
    "sampleSmiles": "O=C(Nc1ccc(C(F)(F)F)cc1)c1cc([N+](=O)[O-])ccc1O",
    "category": "not satisfied"
  },
  {
    "sampleSmiles": "O=C(Nc1cccc(Cl)c1)c1cc([N+](=O)[O-])ccc1O",
    "category": "not satisfied"
  },
  {
    "sampleSmiles": "O=C(Nc1ccc([N+](=O)[O-])cc1)c1cccc([N+](=O)[O-])c1O",
    "category": "not satisfied"
  }
]
